Hey, just so you know, these numbers are from patent US20250368734A1.

System tested: T1, human GPRC5D (human, UniProt Q9NZD1 1-345)
T1 construct: whole, on cells; also called hGPRC5D; G-protein coupled receptor family C group 5 member D
T1 sequence (Q9NZD1 whole entry): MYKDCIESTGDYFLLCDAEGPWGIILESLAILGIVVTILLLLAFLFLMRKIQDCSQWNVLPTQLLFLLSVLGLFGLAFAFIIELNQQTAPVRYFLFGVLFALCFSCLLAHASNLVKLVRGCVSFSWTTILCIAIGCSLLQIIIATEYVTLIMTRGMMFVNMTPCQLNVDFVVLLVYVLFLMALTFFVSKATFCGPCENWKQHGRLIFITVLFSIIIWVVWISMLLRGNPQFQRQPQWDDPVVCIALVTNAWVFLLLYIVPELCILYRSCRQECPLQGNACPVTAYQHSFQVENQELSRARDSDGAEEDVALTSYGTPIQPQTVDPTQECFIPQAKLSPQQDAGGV
Test: FACS, OPM-2 cells
Method: The subcloning plates were screened by Mirrorball assay and the subclones with good binding ability were expanded to 24-wells for confirmation tests. The specificity and cross-reactivity of these subclones were confirmed with FACS analysis. […] Median fluorescence intensity (MFI) was measured by FACS analysis, […]
Measured property: MFI
// no unit string in output, number only

Tell me MFI reported for 108C4C12 (antibody, V domains shown, Mouse monoclonal antibody from hybridoma subclone) VH: EVQLQQSGPELVKPGASVKMSCKASGYTFTSYVIHWVKQKTGQGLEWIGYFNPYNDGTKYNEEFKGKATLTSDKSSNTAYMELNSLTSDDSAVYFCARGGVRRYFDVWGAGTTVTVSS VL: DIQMTQSPSSLSASLGERVSLTCRASQDIGSNLNWLQQEPDGTIKRLIYATFGLDSGVPKRFSGSRSGSDYSLTISSLESEDFVDYYCQQYASFPYTFGGGTKLEIK
878

# context switch: different binder, same MFI
Quickly give me recorded MFI for 116F1G6 (antibody, V domains shown, Mouse monoclonal antibody from hybridoma subclone) VH: EVQLQHSGPELVKPGASVKMSCKASGYTFTTYVMHWVKQKPGQGLEWIGYINPYNDGTKYNEKFKGKATLTSDKSSSTAYMELSSLTSEDSAVYYCARGGVRRYFDVWGAGTTVTVSS VL: DIQMTQSPSSLSASLGERVSLTCRASQDIGSNLNWLQQEPNGTIKRLIYATFTLDSGVPKRFSGSRSGSDYSLTISSLESEDFVDYYCLQYASFPYTFGGGTKLEIK
1040
